All values here come from patent US20020049185A1.

// reported pIC50 per item
# Target System: catalytic domain (Met80-Gly242) of human neutrophil collagenase (Homo sapiens)
# Construct: 8 nM catalytic domain (Met80-Gly242) of human neutrophil collagenase
# Sequence (P22894 100-262): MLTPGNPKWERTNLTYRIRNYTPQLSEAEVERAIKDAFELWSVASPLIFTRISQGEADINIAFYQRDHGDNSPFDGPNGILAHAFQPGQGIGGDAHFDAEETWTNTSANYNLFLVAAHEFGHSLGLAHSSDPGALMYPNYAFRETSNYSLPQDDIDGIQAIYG
# Assay Method Text: Enzyme assay: inhibition of cleavage of a fluorogenic substrate by the HNC catalytic domain
# Setup Conditions: HNC (MMP-8) catalytic domain, 25° C., substrate DNP-Pro-Leu-Gly-Leu-Trp-Ala-D-Arg-NH2
pIC50: −log10 of the molar value.
Endpoint Name: pIC50

> print(dat)
                                   compound  measurement
1  CC(C)CC(C(=O)NO)C(=O)NC(CC(N)=O)C(=O)NCc1cccc(N)c1 (mixture of isomers)         4.52
2  CC(C)CC(C(=O)NO)C(=O)N[C@@H](C)C(=O)NCC(N)=O (some centres unmarked) [ER029, reference compound]         3.86
3  CC(C)CC(C(=O)NO)C(=O)NC(C)C(=O)NCc1ccccc1 (mixture of isomers)         4.24
4  CC(C)CC(C(=O)NO)C(=O)NC(Cc1ccccc1)C(=O)NCc1ccccc1 (mixture of isomers)         4.54
5  CC(C)CC(C(=O)NO)C(=O)NC(CO)C(=O)NCc1ccccc1 (mixture of isomers)         4.40
6  CC(C)CC(C(=O)NO)C(=O)NC(CC(N)=O)C(=O)NCc1ccccc1 (mixture of isomers)         4.20
7  Cc1ccc(CCNC(=O)C(CCc2ccccc2)NC(=O)C(CC(C)C)C(=O)NO)cc1 (mixture of isomers)         5.80
8  CC(C)CC(C(=O)NO)C(=O)NC(CO)C(=O)NCC(=O)NCc1ccccc1 (mixture of isomers)         4.21
